- subject-of-test: T1, GnRH Bio-peptide 1 (not fully specified)
- T1 chain: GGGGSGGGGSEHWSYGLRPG
- assay-explanation: ELISA
property-name: EC50 (nM)
Give just the number in nM; leave the unit off.

Input Clone 1 Variant 3 (antibody, V domains shown) VH: QVQLVESGGGLVQAGGSVRLSCTASGRTFNNYVLGWFRQTPGKEREFVAAIRGTGSTTHADSVKGRFTISRDNAKNTVYLQMNSLKPEDTAVYYCAADDAYYSGNLRPHYWGQGTQVTVSS , output reported EC50.
1.19

State its EC50 for this binder: Clone 1 Variant 5 (antibody, V domains shown) VH: QVQLVESGGGLVQAGGSVRLSCTASGRTFNNYVLGWFRQTPGKEREFVAAIRGTGSTTHADSVKGRFTISRDNAKNTVYLQMNSLKPEDTAVYYCAADRTYYPGALRPQYWGQGTQVTVSS
0.94

Recall and state the measured EC50 for Clone 1 Variant 1 (antibody, V domains shown) VH: QVQLVESGGGLVQAGGSVRLSCTASGRTFNNYVLGWFRQTPGKEREFVAAIRGTGSTTHADSVKGRFTISRDNAKNTVYLQMNSLKPEDTAVYYCAADDAYYPGNLRPHYWGQGTQVTVSS .
0.39

For the binder Clone 1 (pGnRH-001) (antibody, V domains shown) VH: QVQLVESGGGLVQAGGSVRLSCTASGRTFNNYVLGWFRQTPGKEREFVAAIRGTGSTTHADSVKGRFTISRDNAKNTVYLQMNSLKPEDTAVYYCAADDAYYPGNLRPQYWGQGTQVTVSS , give its measured EC50 value.
1.27

Consider the binder Clone 1 Variant 4 (antibody, V domains shown) VH: QVQLVESGGGLVQAGGSVRLSCTASGRTFNNYVLGWFRQTPGKEREFVAAIRGTGSTTHADSVKGRFTISRDNAKNTVYLQMNSLKPEDTAVYYCAADETYYPGNLRPHYWGQGTQVTVSS . State its measured EC50.
0.96

Read off the recorded EC50 for Clone 1 Variant 2 (antibody, V domains shown) VH: QVQLVESGGGLVQAGGSVRLSCTASGRTFNNYVLGWFRQTPGKEREFVAAIRGTGSTTHADSVKGRFTISRDNAKNTVYLQMNSLKPEDTAVYYCAADRAYYPGNLRPHYWGQGTQVTVSS
0.5
